target: NLRP3 (Homo sapiens); assay: Measurement of IL-1β production in PMA-differentiated THP-1 cells (NLRP3 hIL1B)
Sequence (Q96P20 whole entry): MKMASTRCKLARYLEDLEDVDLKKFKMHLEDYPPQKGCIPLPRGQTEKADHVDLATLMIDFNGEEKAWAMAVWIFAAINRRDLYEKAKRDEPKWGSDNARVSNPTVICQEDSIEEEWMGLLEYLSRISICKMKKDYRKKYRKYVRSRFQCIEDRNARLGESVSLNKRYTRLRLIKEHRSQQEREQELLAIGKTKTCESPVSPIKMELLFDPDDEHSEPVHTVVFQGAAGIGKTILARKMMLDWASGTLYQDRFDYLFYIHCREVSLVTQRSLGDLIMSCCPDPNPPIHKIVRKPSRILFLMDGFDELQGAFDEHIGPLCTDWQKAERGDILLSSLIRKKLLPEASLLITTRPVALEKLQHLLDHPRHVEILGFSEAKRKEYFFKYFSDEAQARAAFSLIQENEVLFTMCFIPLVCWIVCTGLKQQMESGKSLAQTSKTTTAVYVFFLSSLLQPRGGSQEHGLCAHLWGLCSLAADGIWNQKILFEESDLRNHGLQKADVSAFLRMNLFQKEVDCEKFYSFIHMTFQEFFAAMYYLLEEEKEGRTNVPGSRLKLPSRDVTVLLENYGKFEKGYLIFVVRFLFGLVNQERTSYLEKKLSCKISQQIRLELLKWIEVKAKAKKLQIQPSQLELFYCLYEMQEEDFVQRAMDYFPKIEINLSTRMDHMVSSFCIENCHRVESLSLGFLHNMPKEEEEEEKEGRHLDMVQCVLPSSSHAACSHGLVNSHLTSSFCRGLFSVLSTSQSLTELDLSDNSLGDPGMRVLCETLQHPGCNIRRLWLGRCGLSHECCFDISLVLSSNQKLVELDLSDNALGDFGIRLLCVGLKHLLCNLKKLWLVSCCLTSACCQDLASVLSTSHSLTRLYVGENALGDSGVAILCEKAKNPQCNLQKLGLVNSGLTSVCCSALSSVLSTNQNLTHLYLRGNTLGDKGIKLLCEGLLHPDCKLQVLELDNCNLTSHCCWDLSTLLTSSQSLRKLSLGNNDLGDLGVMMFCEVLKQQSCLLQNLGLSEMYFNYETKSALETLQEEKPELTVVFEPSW
reported.metric: EC50 (nM)

Look over these answered cases.
| molecule | reported.result |
| --- | --- |
| COc1cc(-c2cc[nH]n2)cc2nc(N)nc(NCc3cncnc3)c12 [Example 135] | 1440 |
| Nc1nc(NCCO)c2c(F)cc(-c3cc[nH]n3)cc2n1 [Example 126] | 760 |
| Nc1nc(NC[C@H](O)CO)c2ccc(-c3ccn[nH]3)cc2n1 [Example 70] | 800 |
| CCCCC(CCO)Nc1nc(N)nc2cc(-c3ccn[nH]3)ccc12 (single isomer, unassigned) [Example 101] | 830 |

a: Nc1nc(NCc2cnn(-c3ccccc3)c2)c2ccc(-c3ccn[nH]3)cc2n1 [Example 169]
b: CC(C)(CO)CCCNc1nc(N)nc2cc(-c3ccn[nH]3)ccc12 [Example 91]
Exam item: Looking only at measured EC50, which entry is lower, a or b ? Reply with the label of the item you choose.
Marked response: a
(a: 730 nM, b: 1300 nM)
